# Assay System: Neurogenic locus notch homolog protein 3 (Homo sapiens) (UniProt Q9UM47)
# Sequence (Q9UM47 whole entry, looked up): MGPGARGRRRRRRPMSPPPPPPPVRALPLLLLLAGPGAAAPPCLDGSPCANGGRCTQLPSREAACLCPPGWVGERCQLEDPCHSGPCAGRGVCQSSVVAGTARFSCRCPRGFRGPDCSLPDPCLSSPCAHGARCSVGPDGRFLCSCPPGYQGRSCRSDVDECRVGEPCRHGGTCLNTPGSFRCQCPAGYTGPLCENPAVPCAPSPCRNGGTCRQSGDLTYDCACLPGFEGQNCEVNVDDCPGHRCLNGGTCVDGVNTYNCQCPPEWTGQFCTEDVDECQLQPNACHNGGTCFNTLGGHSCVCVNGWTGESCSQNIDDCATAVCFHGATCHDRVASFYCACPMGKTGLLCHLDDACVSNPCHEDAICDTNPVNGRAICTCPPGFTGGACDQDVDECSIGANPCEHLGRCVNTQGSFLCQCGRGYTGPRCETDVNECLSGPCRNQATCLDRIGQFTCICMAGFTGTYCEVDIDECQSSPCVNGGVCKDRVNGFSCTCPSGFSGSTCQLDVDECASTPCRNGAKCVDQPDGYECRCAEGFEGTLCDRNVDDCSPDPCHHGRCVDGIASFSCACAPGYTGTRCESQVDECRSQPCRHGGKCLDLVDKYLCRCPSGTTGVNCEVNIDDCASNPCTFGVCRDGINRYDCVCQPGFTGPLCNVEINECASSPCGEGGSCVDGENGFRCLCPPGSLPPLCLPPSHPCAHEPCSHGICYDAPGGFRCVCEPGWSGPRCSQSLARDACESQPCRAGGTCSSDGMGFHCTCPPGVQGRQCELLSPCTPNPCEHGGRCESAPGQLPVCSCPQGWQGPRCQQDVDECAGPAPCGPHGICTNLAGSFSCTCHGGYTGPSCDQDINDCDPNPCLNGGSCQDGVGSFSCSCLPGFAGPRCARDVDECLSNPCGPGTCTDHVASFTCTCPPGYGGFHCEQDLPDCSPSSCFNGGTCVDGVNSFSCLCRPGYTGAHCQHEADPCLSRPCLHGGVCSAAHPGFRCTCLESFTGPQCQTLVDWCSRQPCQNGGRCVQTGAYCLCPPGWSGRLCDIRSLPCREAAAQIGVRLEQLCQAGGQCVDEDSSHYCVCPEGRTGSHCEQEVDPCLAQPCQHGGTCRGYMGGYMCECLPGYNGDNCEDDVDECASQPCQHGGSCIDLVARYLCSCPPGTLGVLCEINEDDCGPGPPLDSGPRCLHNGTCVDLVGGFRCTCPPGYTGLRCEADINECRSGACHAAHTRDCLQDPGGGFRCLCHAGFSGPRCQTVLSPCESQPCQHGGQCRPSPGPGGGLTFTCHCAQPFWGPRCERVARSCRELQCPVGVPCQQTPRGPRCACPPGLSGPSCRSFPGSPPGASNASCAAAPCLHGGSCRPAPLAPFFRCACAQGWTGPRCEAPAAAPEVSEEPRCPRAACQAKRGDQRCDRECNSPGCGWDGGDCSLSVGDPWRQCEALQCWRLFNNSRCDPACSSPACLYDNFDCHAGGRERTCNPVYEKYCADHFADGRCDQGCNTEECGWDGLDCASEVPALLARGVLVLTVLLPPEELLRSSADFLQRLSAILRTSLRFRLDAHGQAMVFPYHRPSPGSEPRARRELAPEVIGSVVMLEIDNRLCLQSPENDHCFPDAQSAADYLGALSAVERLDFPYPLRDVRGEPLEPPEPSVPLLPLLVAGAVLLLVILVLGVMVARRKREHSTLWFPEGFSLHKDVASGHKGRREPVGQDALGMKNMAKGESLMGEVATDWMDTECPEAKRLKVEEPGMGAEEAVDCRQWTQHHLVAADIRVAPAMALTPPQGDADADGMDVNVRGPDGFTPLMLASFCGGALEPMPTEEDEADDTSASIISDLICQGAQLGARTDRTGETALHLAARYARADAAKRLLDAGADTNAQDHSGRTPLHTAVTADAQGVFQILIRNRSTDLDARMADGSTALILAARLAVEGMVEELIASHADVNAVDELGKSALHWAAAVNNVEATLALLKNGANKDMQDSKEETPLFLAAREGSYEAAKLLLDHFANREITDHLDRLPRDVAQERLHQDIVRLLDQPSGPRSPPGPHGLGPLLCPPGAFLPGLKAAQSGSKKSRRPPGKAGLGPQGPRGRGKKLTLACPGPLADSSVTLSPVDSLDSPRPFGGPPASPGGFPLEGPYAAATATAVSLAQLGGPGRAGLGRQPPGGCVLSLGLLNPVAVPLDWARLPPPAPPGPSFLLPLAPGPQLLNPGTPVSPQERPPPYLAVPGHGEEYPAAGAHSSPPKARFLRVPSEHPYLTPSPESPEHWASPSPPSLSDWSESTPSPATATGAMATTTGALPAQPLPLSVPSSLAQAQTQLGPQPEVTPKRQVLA
# Procedure Details: small molecules binding NOTCH3 protein – biochemical, 635/667 nm fluorescence, primary screen (AID 1096)
# Condition: small-molecule microarray, 635 nm fluorescence, higher = more signal
Tick label 1 if composite z-score is 1 or greater. Tick label 0 if composite z-score is less than 1.

{"Compound": "CC(C)CN1C(=O)[C@@]2(Cc3ccccc31)c1ccccc1C(=O)N(Cc1ccccc1)[C@H]2c1ccc(CO)cc1", "Class": "label 0"}
{"Compound": "O=C(Nc1cc(Br)ccc1C(=O)NCc1cccc(O)c1)c1ccccc1", "Class": "label 0"}
{"Compound": "CC(=O)NCCCC[C@@H]1NC(=O)[C@@H]2C[C@H](C(=O)NCCCC[N+](C)(C)C)[C@H](c3cccc(OCCO)c3)N2C1=O", "Class": "label 0"}
{"Compound": "NC(=O)NCC#Cc1ccc2c(c1)[C@]1(C(=O)N2)[C@H](c2ccc(O)cc2)N2[C@H](c3ccccc3)[C@H](c3ccccc3)OC(=O)[C@H]2[C@@H]1C(=O)NC[C@H](O)c1ccccc1", "Class": "label 0"}
{"Compound": "COc1ccc([Si](C)(C)[C@@H]2[C@@H](CCO)O[C@]3(C(=O)N(Cc4cccc(N5C(=O)COc6ccccc65)c4)c4ccccc43)[C@H]2C)cc1", "Class": "label 0"}
{"Compound": "CCOC(=O)C1=CC[C@@H](c2ccccc2)N(S(=O)(=O)c2ccc(C)cc2)[C@H]1C=C(C)C", "Class": "label 1"}
{"Compound": "CC(C)NC(=O)[C@@H]1c2ccccc2C(=O)N(Cc2cc(C(F)(F)F)cc(C(F)(F)F)c2)[C@H]1c1ccc(CO)cc1", "Class": "label 1"}
{"Compound": "CCOC(=O)C1=CC[C@@H](c2cccc(Br)c2)N(S(=O)(=O)c2ccc(C)cc2)[C@H]1c1ccc([N+](=O)[O-])cc1", "Class": "label 1"}
{"Compound": "C=CCOc1ccc([C@@H]2CC=C(C(=O)OCC)[C@H](c3cccc(Br)c3)N2S(=O)(=O)c2ccc(C)cc2)cc1", "Class": "label 0"}
{"Compound": "Cc1ccc(S[C@]2(C(=O)O)CC(=O)N(C3CCCCC3)[C@@H]2c2ccc(CO)cc2)cc1", "Class": "label 0"}
{"Compound": "CCOC(=O)C[C@H]1[C@H](OC(=O)c2cc3ccccc3oc2=O)[C@@H](NC(=O)c2ccc3ccccc3n2)c2cc(OCCCO)ccc2N1C(=O)c1ccc2ccccc2n1", "Class": "label 1"}
{"Compound": "O=C1NC(=O)C2C1C=CC(C(O)c1ccc(-c3ccccc3)s1)N2Nc1ccccn1 (stereo not drawn)", "Class": "label 0"}
{"Compound": "CC(C)C(CO)N1C(=O)[C@@H]2[C@H]3C(=O)OCC=C[C@H]3OC23C=CCN(Cn2nnc4ccccc42)C(=O)[C@@H]13 (stereo partly drawn)", "Class": "label 0"}
{"Compound": "CC(C)=CCCC(C)=CC(O)C1C=CC2C(=O)N(c3ccccc3)C(=O)C2N1Nc1ccc([N+](=O)[O-])cc1 (stereo not drawn)", "Class": "label 1"}
{"Compound": "COc1ccc(C(=O)Nc2ccc(CN3C(=O)[C@@]4(O[C@@H](CC(=O)N5Cc6ccccc6C[C@H]5CO)[C@H]([Si](C)(C)c5ccc(OC)cc5)[C@H]4C)c4ccccc43)cc2)cc1", "Class": "label 1"}
{"Compound": "COC(=O)[C@@]1(Cc2ccc(F)cc2)[C@@H]2[C@@H](CC(=O)[C@H]2CC(=O)C(=O)N2CCCC2)CN1C(=O)c1ccccc1", "Class": "label 1"}
{"Compound": "C=CC[C@]1(C(=O)N(C)C)N=C(c2ccc(OCCCO)cc2)O[C@H]1c1ccccc1", "Class": "label 1"}
{"Compound": "COCCOC(=O)N1C(=O)[C@@]2(c3cc(C#CCC(C(=O)OC)C(=O)OC)ccc31)[C@H](C(=O)N1CCCCCCC1)[C@H]1C(=O)O[C@H](c3ccccc3)[C@H](c3ccccc3)N1[C@@H]2c1ccc(O)cc1", "Class": "label 1"}
{"Compound": "NC(=O)NCC#Cc1ccc2c(c1)[C@]1(C(=O)N2)[C@H](c2ccc(OCCO)cc2)N2[C@H](c3ccccc3)[C@H](c3ccccc3)OC(=O)[C@H]2[C@@H]1C(=O)N1CCCCCCC1", "Class": "label 1"}
{"Compound": "C=CCNC(=O)[C@H]1[C@@H]2C(=O)O[C@@H](c3ccccc3)[C@@H](c3ccccc3)N2[C@@H](c2ccc(OCCO)cc2)[C@]12C(=O)N(C(=O)OCCOC)c1ccc(C#CC3=CCCCC3)cc12", "Class": "label 1"}
{"Compound": "COCCCNC(=O)[C@@]1(Cc2ccccc2CN=[N+]=[N-])N=C(c2ccc(OCCCO)cc2)O[C@H]1c1ccccc1N=[N+]=[N-]", "Class": "label 0"}
{"Compound": "O=C1c2ccccc2[C@](Cc2ccccc2I)(C(=O)NCC(F)(F)F)[C@H](c2ccc(CO)cc2)N1Cc1ccccc1", "Class": "label 1"}
{"Compound": "O=C(O)[C@@]1(Cc2ccccc2)COC(c2ccc(OCCCO)cc2)=N1", "Class": "label 0"}
{"Compound": "[N-]=[N+]=NCc1ccccc1C[C@]1(C(=O)NCCN2CCOCC2)COC(c2ccc(OCCCO)cc2)=N1", "Class": "label 0"}
{"Compound": "COC(=O)[C@@]1(Cc2ccc(F)cc2)[C@H]2c3cc(C(=O)N(C)C)n(CCSCCO)c3C[C@H]2CN1C(=O)c1ccccc1", "Class": "label 0"}
{"Compound": "CCCC[C@H]1OB(O)C[C@H]2C1=C(COc1ccccc1)Cn1c(=O)n(-c3ccccc3)c(=O)n12", "Class": "label 0"}
{"Compound": "CN(C)CCCN1C(=O)[C@@]2(Cc3ccccc31)c1ccccc1C(=O)N(Cc1ccccc1)[C@H]2c1ccc(CO)cc1", "Class": "label 0"}
{"Compound": "COCCCNC(=O)[C@]1(Cc2ccccc2)N=C(c2ccc(OCCCO)cc2)O[C@@H]1c1ccccc1N=[N+]=[N-]", "Class": "label 1"}

----------
# Assay System: Calmodulin-1 (Homo sapiens)
# Procedure Details: small molecules binding calmodulin-1 with EGTA – biochemical, small-molecule microarray, Cy5-labelled CALM1, profiling panel (AID 1111);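 further: labelled calmodulin applied in Tris saline Tween buffer holding calcium plus EGTA and DTT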
# Condition: Cy5-CALM1 binding fluorescence, higher = more signal

{"Compound": "O=C1OCCC=C[C@H]2OC34C=CCN(Cn5nnc6ccccc65)C(=O)[C@H]3N(CCCCCO)C(=O)[C@@H]4C12 (some centres undefined)", "composite z-score": -0.212}
{"Compound": "C/C=C/[C@@H](CCn1cc([C@H](O)c2ccccc2)nn1)[Si](C)(C)c1ccc(OC)cc1", "composite z-score": -1.34}
{"Compound": "COc1ccc([Si](C)(C)[C@@H]2[C@@H](CC(=O)N(CCO)Cc3ccccc3)O[C@]3(C(=O)N(Cc4ccc(N5CCOC5=O)cc4)c4ccccc43)[C@H]2C)cc1", "composite z-score": 0.515}
{"Compound": "Cc1ccc(S[C@]2(C(=O)NCC(C)C)CC(=O)N(C3CCCCC3)[C@@H]2c2ccc(CO)cc2I)cc1", "composite z-score": 1.73}

----------
# System: Sam68 (KHDRBS1)
# Procedure Details: compounds binding KHDRBS1 protein – biochemical, small-molecule microarray, 635 nm fluorescence, primary screen (AID 1125);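 further: score merges 667 nm channel intensity with signal to noise over triplicate slides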
# Condition: higher = more signal
Reported composite z-score values for the following compounds.

{"Compound": "COc1ccc(C#Cc2ccc3c(c2)[C@]2(C(=O)N3)[C@H](C(=O)O)[C@H]3C(=O)O[C@H](c4ccccc4)[C@H](c4ccccc4)N3[C@@H]2c2ccc(OCCO)cc2)cc1", "composite z-score": 1.29}
{"Compound": "C=CCN1C(=O)[C@@]2(O[C@@H](CCn3cc([C@H](O)c4ccccc4)nn3)[C@H]([Si](C)(C)c3ccc(OC)cc3)[C@H]2C)c2cc(NC(=O)c3ccc(OC)cc3)ccc21", "composite z-score": 1.03}
{"Compound": "CCOC(=O)C1=CCC(c2cccc(Cl)c2)O1 (stereo not given)", "composite z-score": 0.609}
{"Compound": "COC(=O)[C@@]1(Cc2ccc(F)cc2)[C@H]2c3cc(C(=O)N(C)C)n(Cc4ccc(C)c(F)c4F)c3C[C@H]2CN1C(=O)c1ccccc1", "composite z-score": 1.07}
{"Compound": "COC(=O)[C@@]1(Cc2ccc(OC)cc2)[C@H]2c3cc(C(=O)N(C)C)n(Cc4cc(F)c(F)c(F)c4)c3C[C@H]2CN1C(=O)c1ccccc1", "composite z-score": 1.11}
{"Compound": "O=C(Nc1cc(Br)ccc1C(=O)NCc1cccc(O)c1)c1ccccc1", "composite z-score": 0.778}
{"Compound": "Cc1ccccc1C(O)C1C=CC2C(=O)N(Cc3ccccc3)C(=O)C2N1n1cnnc1 (stereo not given)", "composite z-score": 1.01}
{"Compound": "COCCCNC(=O)[C@@]1(Cc2ccccc2N=[N+]=[N-])N=C(c2ccc(OCCCO)cc2)O[C@H]1c1ccccc1CN=[N+]=[N-]", "composite z-score": 1.29}
{"Compound": "O=C1O[C@H](c2ccccc2)[C@H](c2ccccc2)N2[C@H]1[C@@H](C(=O)N1CCN(c3ncccn3)CC1)[C@]1(C(=O)Nc3ccc(C#CCCO)cc31)[C@H]2c1ccc(OCCO)cc1", "composite z-score": 1.3}
{"Compound": "CO[C@H]1O[C@H](CO)[C@@H](OC(=O)Nc2ccc(C(F)(F)F)cc2)[C@H](OC(=O)Nc2ccccc2)[C@H]1OC(=O)Nc1ccccc1", "composite z-score": 1.3}
{"Compound": "C=CCOC(=O)[C@@H]1[C@H]2C(=O)O[C@H](c3ccccc3)[C@H](c3ccccc3)N2[C@H](c2ccc(OCCOC(=O)[C@@H]3C[C@@H]4C(=O)N5CCC[C@H]5C(=O)N4[C@@H]3c3cccc(OCCO)c3)cc2)[C@@]12C(=O)Nc1ccc(I)cc12", "composite z-score": 1.29}
{"Compound": "[N-]=[N+]=NCc1ccccc1[C@H]1OC(c2ccc(OCCCO)cc2)=N[C@@]1(Cc1ccccc1N=[N+]=[N-])C(=O)N1CCCCC1", "composite z-score": 1.29}
{"Compound": "C=CCC(OC(C)=O)[C@@H]1[C@@H](N(Cc2ccc(-c3cccc(C(F)(F)F)c3)o2)C(=O)c2cccc3ccccc23)c2cc(OCCCO)ccc2N1C(=O)c1ccc(-c2ccccc2)cc1 (stereo not given in full)", "composite z-score": -0.407}
{"Compound": "CN(C)CCCCNC(=O)[C@H]1C[C@H]2C(=O)N[C@@H](CCCC[N+](C)(C)C)C(=O)N2[C@H]1c1cccc(OCCO)c1", "composite z-score": 1.15}
{"Compound": "CCOC(=O)C[C@H]1[C@H](OC(=O)c2cc3ccccc3oc2=O)[C@@H](NC(=O)c2ccc3ccccc3n2)c2cc(OCCCO)ccc2N1C(=O)c1ccc2ccccc2n1", "composite z-score": 0.539}
{"Compound": "CCCC=C(CCC)[C@@H](NS(=O)(=O)c1cccc2cccnc12)c1ccc(C(=O)OC)cc1", "composite z-score": 0.287}
{"Compound": "COc1ccc(CCNC(=O)[C@@H]2c3ccccc3C(=O)N(Cc3ccccc3C(F)(F)F)[C@H]2c2ccc(CO)cc2)cc1", "composite z-score": 0.501}
{"Compound": "CN(C)C(=O)[C@]1(Cc2ccccc2N=[N+]=[N-])N=C(c2ccc(OCCCO)cc2)O[C@@H]1c1ccccc1CN=[N+]=[N-]", "composite z-score": 1.3}
{"Compound": "COc1cc(NN2C(C(O)c3ccc(I)cc3)C=CC3C(=O)N(C)C(=O)C32)cc(OC)c1OC (stereo not given)", "composite z-score": 0.144}
{"Compound": "COC(=O)[C@H]1N=C(c2ccc(OCCCO)cc2)O[C@H]1c1ccccc1CN=[N+]=[N-]", "composite z-score": 0.0826}

Each recorded value in this set is attributed to PubChem BioAssay.
